Data origin: patent US11566007B2

IC50 by entry:
- Assay Target: K-Ras G12C (Homo sapiens (Human), UniProt P01116+P62937, G12C)
- Sequence (P01116-2 other isoform, or with tags, fused parts or gaps G12C): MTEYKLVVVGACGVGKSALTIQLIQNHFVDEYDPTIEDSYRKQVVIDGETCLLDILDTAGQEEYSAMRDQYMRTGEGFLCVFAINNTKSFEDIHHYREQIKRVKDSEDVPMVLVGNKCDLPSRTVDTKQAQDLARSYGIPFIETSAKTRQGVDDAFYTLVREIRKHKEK
- Sequence (P62937 whole entry): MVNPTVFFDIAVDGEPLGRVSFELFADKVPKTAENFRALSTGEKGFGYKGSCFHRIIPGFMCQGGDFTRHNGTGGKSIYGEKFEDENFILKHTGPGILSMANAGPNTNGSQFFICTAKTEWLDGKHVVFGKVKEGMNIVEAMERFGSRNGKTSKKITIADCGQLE
- Assay Notes: Ras-Raf (BRAF RBD) disruption / FRET / MOA assay, KRAS G12C
- Type: biochemical
- Reported Conditions: KRAS G12C; Ras-Raf disruption/FRET/MOA assay; read-out: IC50* KRAS G12C FRET data
Value Kind: IC50

- Molecule: "C=CC(=O)N(C)[C@H]1C[C@@H](N(C)C(=O)N(C)[C@H](C(=O)N[C@H]2Cc3nc(cs3)-c3ccc4c(c3)c(c(-c3cccnc3[C@H](C)OC)n4CC)CC(C)(C)COC(=O)[C@@H]3CCCN(N3)C2=O)C(C)C)C1 (atropisomer, axis not shown) [Example A704]"
  Assay Target: "K-Ras G12C (Homo sapiens (Human), UniProt P01116+P62937, G12C)"
  Result: "10 to 100 nM"
- Molecule: "CCn1c(-c2cccnc2[C@H](C)OC)c2c3cc(ccc31)-c1cccc(c1)C[C@H](NC(=O)[C@@H](CO[C@@H]1CCN(C(=O)C#CC(C)(C)N(C)C)C1)C(C)C)C(=O)N1CCC[C@H](N1)C(=O)OCC(C)(C)C2 (atropisomer, axis not shown) [Example A584]"
  Assay Target: "K-Ras G12C (Homo sapiens (Human), UniProt P01116+P62937, G12C)"
  Result: "10 to 100 nM"
- Molecule: "CCn1c(-c2cccnc2[C@H](C)OC)c2c3cc(ccc31)-c1cccc(c1)C[C@H](NC(=O)[C@H](C(C)C)N(C)C(=O)[C@H]1CCN(C(=O)C#CC(C)(C)N3CCCC3)C1)C(=O)N1CCC[C@H](N1)C(=O)OCC(C)(C)C2 (atropisomer, axis not shown) [Example A326]"
  Assay Target: "K-Ras G12C (Homo sapiens (Human), UniProt P01116+P62937, G12C)"
  Result: "< 10 nM"
- Molecule: "C=CC(=O)Nc1ccc(C(=O)N(C)[C@H](C(=O)N[C@H]2Cc3cc(O)cc(c3)-c3ccc4c(c3)c(c(-c3cccnc3[C@H](C)OC)n4CC)CC(C)(C)COC(=O)[C@@H]3CCCN(N3)C2=O)C(C)C)nc1 (atropisomer, axis not shown) [Example A252]"
  Assay Target: "K-Ras G12C (Homo sapiens (Human), UniProt P01116+P62937, G12C)"
  Result: "10 to 100 nM"
- Molecule: "C=CC(=O)N1C[C@@H](C)N(C(=O)N(C)[C@H](C(=O)N[C@H]2Cc3nc(cs3)-c3ccc4c(c3)c(c(-c3cccnc3[C@H](C)OC)n4CC)CC(C)(C)COC(=O)[C@@H]3CCCN(N3)C2=O)C(C)C)C[C@@H]1C (atropisomer, axis not shown) [Example A418]"
  Assay Target: "K-Ras G12C (Homo sapiens (Human), UniProt P01116+P62937, G12C)"
  Result: "10 to 100 nM"
- Molecule: "CC#CC(=O)N1CC[C@]2(CCN([C@H](C(=O)N[C@H]3Cc4cccc(c4)-c4ccc5c(c4)c(c(-c4cccnc4[C@H](C)OC)n5CC)CC(C)(C)COC(=O)[C@@H]4CCCN(N4)C3=O)C(C)C)C2=O)C1 (atropisomer, axis not shown) [Example A412]"
  Assay Target: "K-Ras G12C (Homo sapiens (Human), UniProt P01116+P62937, G12C)"
  Result: "100 to 1000 nM"
- Molecule: "C=CC(=O)N1CC[C@H](C(=O)N(C)[C@H](C(=O)N[C@H]2Cc3cc(O)cc(c3)-c3ccc4c(c3)c(c(-c3cc(N5CC(OC)C5)ccn3)n4CC)CC(C)(C)COC(=O)[C@@H]3CCCN(N3)C2=O)C(C)C)C1 [Example A104]"
  Assay Target: "K-Ras G12C (Homo sapiens (Human), UniProt P01116+P62937, G12C)"
  Result: "10 to 100 nM"
- Molecule: "CC#CC(=O)N1CC[C@@]2(CCN([C@H](C(=O)N[C@H]3Cc4nc(cs4)-c4ccc5c(c4)c(c(-c4cccnc4[C@H](C)OC)n5CC)CC(C)(C)COC(=O)[C@@H]4CCCN(N4)C3=O)C(C)C)C2=O)C1 (atropisomer, axis not shown) [Example A535]"
  Assay Target: "K-Ras G12C (Homo sapiens (Human), UniProt P01116+P62937, G12C)"
  Result: "1000 to 10000 nM"
- Molecule: "CC#CC(=O)N1CC2(CCN2C(=O)N(C)[C@H](C(=O)N[C@H]2Cc3nc(cs3)-c3ccc4c(c3)c(c(-c3cccnc3[C@H](C)OC)n4CC)CC(C)(C)COC(=O)[C@@H]3CCCN(N3)C2=O)C(C)C)C1 (atropisomer, axis not shown) [Example A655]"
  Assay Target: "K-Ras G12C (Homo sapiens (Human), UniProt P01116+P62937, G12C)"
  Result: "100 to 1000 nM"
- Molecule: "CCn1c(-c2cccnc2[C@H](C)OC)c2c3cc(ccc31)N1CCC[C@@H](C[C@H](NC(=O)[C@H](C(C)C)N(C)C(=O)[C@H]3CCN(C(=O)C#CC(C)(C)N4CCC4)C3)C(=O)N3CCC[C@H](N3)C(=O)OCC(C)(C)C2)C1 (atropisomer, axis not shown) [Example A617]"
  Assay Target: "K-Ras G12C (Homo sapiens (Human), UniProt P01116+P62937, G12C)"
  Result: "10 to 100 nM"
- Molecule: "C=CC(=O)N1CC2(CCN2C(=O)N(C)[C@H](C(=O)N[C@H]2Cc3nc(n(C)n3)-c3ccc4c(c3)c(c(-c3cccnc3[C@H](C)OC)n4CC)CC(C)(C)COC(=O)[C@@H]3CCCN(N3)C2=O)C(C)C)C1 (atropisomer, axis not shown) [Example A612]"
  Assay Target: "K-Ras G12C (Homo sapiens (Human), UniProt P01116+P62937, G12C)"
  Result: "10 to 100 nM"
- Molecule: "CO[C@@H](C)c1ncccc1-c1c2c3cc(ccc3n1CC(F)(F)F)-c1cccc(c1)CN(NC(=O)[C@@H](COC1CN(C(=O)C#CC(C)(C)N(C)C)C1)C(C)C)C(=O)N1CCC[C@H](N1)C(=O)OCC(C)(C)C2 (atropisomer, axis not shown) [Example A601]"
  Assay Target: "K-Ras G12C (Homo sapiens (Human), UniProt P01116+P62937, G12C)"
  Result: "< 10 nM"
- Molecule: "CC#CC(=O)N1CC[C@H](C(=O)N(C)[C@H](C(=O)N[C@H]2Cc3nc(cs3)-c3ccc4c(c3)c(c(-c3cccnc3[C@H](C)OC)n4C(C)=O)CC(C)(C)COC(=O)[C@@H]3CCCN(N3)C2=O)C(C)C)C1 [Example A293]"
  Assay Target: "K-Ras G12C (Homo sapiens (Human), UniProt P01116+P62937, G12C)"
  Result: "> 10000 nM"
- Molecule: "C=CC(=O)N1CCO[C@H]2CN(C(=O)N(C)[C@H](C(=O)N[C@H]3Cc4cccc(n4)-c4ccc5c(c4)c(c(-c4cccnc4[C@H](C)OC)n5CC)CC(C)(C)COC(=O)[C@@H]4CCCN(N4)C3=O)C(C)C)C[C@H]21 (atropisomer, axis not shown) [Example A597]"
  Assay Target: "K-Ras G12C (Homo sapiens (Human), UniProt P01116+P62937, G12C)"
  Result: "10 to 100 nM"
- Molecule: "C=CC(=O)N1CC2(C1)OCCCN2C(=O)N(C)[C@H](C(=O)N[C@H]1Cc2nc(cs2)-c2ccc3c(c2)c(c(-c2cccnc2[C@H](C)OC)n3CC)CC(C)(C)COC(=O)[C@@H]2CCCN(N2)C1=O)C(C)C (atropisomer, axis not shown) [Example A735]"
  Assay Target: "K-Ras G12C (Homo sapiens (Human), UniProt P01116+P62937, G12C)"
  Result: "< 10 nM"
